assay: ATG_MRE_CIS: Attagene CIS-FACTORIAL HepG2 Assay for human Metal Responsive Element (MRE) (AID 2282954); conditions: HepG2 MRE cis-reporter transcription, Attagene multiplex; actives raise or lower the signal
The source made the active and inactive calls. The calls were made as follows: active = hit-call score of the fitted dose curve at least 0.9, where 1 is the maximum; inactive = score below 0.9.
Returns: one label drawn from active, inactive

See these solved cases before continuing.
Problem: Hi team, can someone confirm the assay call for CCc1cccc(C)c1N(C(=O)CCl)[C@@H](C)COC ?
Result: active

Problem: Recorded call for C=CC(=O)OCCCCOC(=O)C=C ?
Result: active

Problem: Kindly provide the recorded test outcome for the following compound: CC(C)[C@@H](C(=O)O[C@@H](C#N)c1cccc(Oc2ccccc2)c1)c1ccc(Cl)cc1
Result: inactive

Next:
Problem: GET /call?item= O=[N+]([O-])O.O=[N+]([O-])O.[Cd] returns the recorded outcome of this test.
Result: active

Problem: How did this test come out for CCCCCCC1CCOC1=O (stereo not drawn) ?
Result: inactive

Problem: Call for entry BrCBr :
Result: inactive

Problem: Given [Cl-].[Cl-].[Cl-].[Yb+3] , state the outcome it received in this test.
Result: inactive

Problem: Entry O=C(CCN1CC1)OCC(CO)(COC(=O)CCN1CC1)COC(=O)CCN1CC1 : call = ?
Result: inactive

###

target: Norway rat Vesicular Monoamine Transporter (VMAT2), neurotransmitter transporter, Slc18a2 (gene 25549); assay: NVS_TR_rVMAT2: NovaScreen (NVS) Transporter Assay for Norway rat Vesicular Monoamine Transporter (VMAT2), neurotransmitter transporter (AID 2283376);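 also: actives lower the bound radioligand signal below the DMSO level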
Inconclusive results are not listed. Calls of active or inactive are those of the source. How the source made its calls: active means hit-call score of the fitted dose curve at least 0.9, where 1 is the maximum; inconclusive means response in the unintended direction; inactive means score below 0.9.
Field 'call' accepts Yes = active, No = inactive

Look over these answered cases.
Problem: # outcome recorded in this test, key = Cc1cc(CCC(=O)OCCOCCOCCOC(=O)CCc2cc(C)c(O)c(C(C)(C)C)c2)cc(C(C)(C)C)c1O
Result: No

Problem: Please share the test call associated with O=C(c1ccc(OCCN2CCCCC2)cc1)c1c(-c2ccc(O)cc2)sc2cc(O)ccc12 .
Result: Yes

Problem: # fetch the recorded call for N=C(N)c1ccc(OCCCCCOc2ccc(C(=N)N)cc2)cc1 here
Result: Yes

***
Problem: Query: recorded result category for Cc1occc1C(=O)Nc1ccc(C(=O)N2CCC(F)(F)/C(=C\C(=O)N3CCC(N4CCCCC4)CC3)c3ccccc32)cc1 in this test
Result: Yes

###

target: Nuclear receptor subfamily 4 group A member 2 (Homo sapiens); experiment: ATG_NURR1_TRANS: Attagene TRANS-FACTORIAL HepG2 Assay for human Nuclear Receptor Related Protein 1 (NURR1) (AID 2282985); conditions: HepG2 Attagene TRANS reporter, mRNA readout
Results filed as inconclusive are left out. Activity calls are given as the source filed them. The calls were made as follows: active = hit-call score of the fitted dose curve at least 0.9, where 1 is the maximum; inconclusive = response in the unintended direction; inactive = score below 0.9.
Give one outcome, nothing more. List: 1 (yes) for active, 0 (no) for inactive

Past entries and their recorded results:
Problem: Identify the outcome logged in this assay for the compound shown: C[C@]12CC[C@H]3[C@@H](CC[C@@]45O[C@@H]4C(O)=C(C#N)C[C@]35C)[C@@H]1CC[C@@H]2O
Result: 0 (no)

Problem: Record request — test call for C=CC(=O)OC
Result: 0 (no)

Problem: Tell me the assay call for CC(C)(C)C(=O)CCl please.
Result: 1 (yes)

Problem: Kindly provide the recorded test outcome for the following compound: CC(C)(O)C#N
Result: 0 (no)

Problem: Could you please tell me the result logged for CC1CCC(=O)O1 (configuration not stated) in this assay?
Result: 0 (no)

Problem: Dear colleague, could you share the recorded outcome for CCN(CC)C(=S)S when you have a moment?
Result: 0 (no)

Continuing:
Problem: Just curious, what result did [CH3][Sn]([CH3])([Cl])[Cl] get here?
Result: 0 (no)

Problem: Field: outcome | Entry: ClCCCCCCCl
Result: 0 (no)

Problem: Hey, what did the test say about O=P(O)(Oc1ccccc1)Oc1ccccc1 ?
Result: 0 (no)

Problem: Called result for CN1C[C@H](C(=O)N[C@]2(C)O[C@@]3(O)[C@@H]4CCCN4C(=O)[C@H](Cc4ccccc4)N3C2=O)C=C2c3cccc4[nH]cc(c34)C[C@H]21
Result: 0 (no)

Problem: Could you please tell me the result logged for CC(C)[C@@H](C(=O)O[C@@H](C#N)c1cccc(Oc2ccccc2)c1)c1ccc(Cl)cc1 in this assay?
Result: 0 (no)

Problem: Which result was noted for this compound in the test: N#CCNCC#N
Result: 0 (no)

Problem: Just curious, what result did Cc1ccc(N(SC(F)(Cl)Cl)S(=O)(=O)N(C)C)cc1 get here?
Result: 0 (no)

Problem: Field: outcome | Entry: CC(C)(c1cc(Cl)c(O)c(Cl)c1)c1cc(Cl)c(O)c(Cl)c1
Result: 1 (yes)

Problem: # fetch the recorded call for N#CC(c1ccccc1)c1ccccc1 here
Result: 0 (no)

Problem: Lab log entry: CCCCCCCCCCCCCCCC[N+](C)(C)C — outcome as called in the assay?
Result: 0 (no)

Problem: Call for entry S=c1[nH]c2ccccc2[nH]1 :
Result: 0 (no)

Problem: Lab log entry: Cc1ccc(C)c2ccccc12 — outcome as called in the assay?
Result: 0 (no)

Problem: # outcome recorded in this test, key = CCCCNP(N)(N)=S
Result: 0 (no)

Problem: Kindly provide the recorded test outcome for the following compound: CCOC(=O)C1OC1(C)c1ccccc1 (configuration not stated)
Result: 0 (no)

Problem: Please share the test call associated with O=CNC(N1CCN(C(NC=O)C(Cl)(Cl)Cl)CC1)C(Cl)(Cl)Cl (configuration not stated) .
Result: 0 (no)

Problem: Outcome logged for BrCBr in this assay:
Result: 0 (no)

Problem: What did the test return for C[C@]12CC[C@H](O)C[C@H]1CC[C@@H]1[C@@H]2C[C@@H](O)[C@]2(C)[C@@H](C3=CC(=O)OC3)CC[C@]12O ?
Result: 0 (no)

Problem: Tell me the recorded outcome of this test for SCc1ccco1 .
Result: 0 (no)

Problem: Hi team, can someone confirm the assay call for Nc1ccc([N+](=O)[O-])cc1N ?
Result: 0 (no)

Problem: For CCCCCCCCCCCC#N , which call appears in the assay record?
Result: 0 (no)

Problem: Outcome logged for O=c1c2ccccc2c(=O)c2c1cc(Cl)c1[nH]c3c([nH]c12)c(Cl)cc1c(=O)c2ccccc2c(=O)c13 in this assay:
Result: 0 (no)

Problem: What was the test verdict on O=C(O)CCCc1ccc(N(CCCl)CCCl)cc1 ?
Result: 0 (no)

Problem: For this compound, state the assay outcome: Cc1cc(C)c(C2=C(OC(=O)CC(C)(C)C)C3(CCCC3)OC2=O)c(C)c1
Result: 0 (no)

Problem: Given Clc1ccc(-c2ccccc2)cc1 , state the outcome it received in this test.
Result: 0 (no)

###

assay: BSK_4H_Eotaxin3: BioMAP Diversity Plus: 4H Assay for Eotaxin 3 Biomarker Activity (AID 2283000); details: primary human endothelial cells (HUVEC); actives raise or lower the signal;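 as to outcome: CCL26 protein level quantified by ELISA in parallel with SRB cytotoxicity check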
Activity calls are given as the source filed them. The calls were made as follows: active = hit-call score of the fitted dose curve at least 0.9, where 1 is the maximum; inactive = score below 0.9.
Respond only with the outcome that fits, drawn from t (active), f (inactive)

Problem: GET /call?item= CC(C)COP(=O)(OCC(C)C)OCC(C)C returns the recorded outcome of this test.
Result: f

Problem: Which outcome was entered for the compound O=P1(NCCCl)OCCCN1CCCl (configuration not stated) in this test?
Result: f

Problem: How did this test come out for O=c1[nH]c(Cl)c(Cl)cc1Cl ?
Result: f

Problem: What outcome does the record of this test show for CCC(C)c1cc([N+](=O)[O-])cc([N+](=O)[O-])c1OC(=O)C=C(C)C (configuration not stated) ?
Result: t

Problem: # outcome recorded in this test, key = O=C1C(Cl)=C(Cl)C(=O)C(Cl)=C1Cl
Result: t

Problem: Each compound tested received a call. Report the one for c1ccc(Nc2ccc3ccccc3c2)cc1 .
Result: f

Problem: Which result was noted for this compound in the test: CCCC[N+](CCCC)(CCCC)CCCC
Result: f

###

Listing of recorded AC50 by entry.
read-out: Vascular cell adhesion molecule 1 (VCAM1), VCAM1 (gene 7412); assay: BSK_CASM3C_VCAM1: BioMAP Diversity Plus: CASM3C Assay for Vascular cell adhesion molecule 1 (VCAM1) Biomarker Activity (AID 2283055); conditions: primary human coronary artery smooth muscle cells; actives raise or lower the signal;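 also: VCAM-1 protein level quantified by ELISA on the cells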
Active and inactive are the calls of the source. Rule for the calls: active = hit-call score of the fitted dose curve at least 0.9, where 1 is the maximum; inactive = score below 0.9.

Problem: For the compound O=C(CCl)c1ccccc1 , give its measured AC50 value.
Result: 7.45 µM (active)

# ---- query compound ----
Problem: Hello, please tell me recorded AC50 for this one: O=[N+]([O-])C=Cc1ccccc1
Result: 8.66 µM (active)

###

assay: ATG_SREBP_CIS: Attagene CIS-FACTORIAL HepG2 Assay for human Sterol Regulatory Element Binding (SREBP) (AID 2282962); settings: HepG2 Attagene cis-factorial SREBP reporter, mRNA; actives raise or lower the signal
Calls of active or inactive are those of the source. The calls were made as follows: active = hit-call score of the fitted dose curve at least 0.9, where 1 is the maximum; inactive = score below 0.9.
One label from this list, please: Yes = active, No = inactive

Problem: GET /call?item= Clc1ccc(-c2ccccc2)cc1 returns the recorded outcome of this test.
Result: No

Problem: Hey, what did the test say about CCOP(=O)(OCC)OCC ?
Result: No

Problem: Please share the test call associated with c1ccc(Nc2ccc3ccccc3c2)cc1 .
Result: No

Problem: For this compound, state the assay outcome: Cc1ccc(OP(=O)(Oc2ccc(C)cc2)Oc2ccc(C)cc2)cc1 (tested in a mixture with another compound)
Result: No

Problem: Per the assay record, what outcome was assigned to N#Cc1cc(I)c(O)c(I)c1 ?
Result: No

In the following, a different compound is considered.
Problem: Outcome logged for CC(=O)/C=C/c1ccccc1 in this assay:
Result: No
